- subjectOfTest: PDE5 enzyme isolated from human platelets (Homo sapiens, UniProt O76074)
- Construct: The PDE5 enzyme for use in the assay can be obtained from human platelets
- runDescription: Alternative human platelet PDE5 enzyme inhibition scintillation proximity assay (Method 2)
- details: cGMP substrate 50 nM, 60 minutes at room temperature
pIC50: −log10 of the molar value.
recordedEndpoint: pIC50

compound: CCCOCCn1c(=O)c(N2CCC(O)C2)nc2cnc(-c3ccc(OC)nc3)cc21 (centres unmarked)
pIC50: 9.38

a: CCCOCCn1c(=O)c(N2CCN(CCO)CC2)nc2cnc(-c3cccc(OCC)c3)cc21
b: CCCOCCn1c(=O)c(N2CCN(CCO)[C@@H](C)C2)nc2cnc(-c3ccc(OC)nc3)cc21
Field: lower pIC50 | Options: a / b Answer with the label corresponding to your selection.
a
(a: 6.80, b: 9.61)

a: CCCOCCn1c(=O)c(N2CCCC(CO)C2)nc2cnc(-c3ccc(OC)nc3)cc21 (centres unmarked)
b: CCCOCCn1c(=O)c(N2CCN(CCO)CC2)nc2cnc(-c3cccc(F)c3F)cc21
Field: lower pIC50 | Options: a / b Answer with the label corresponding to your selection.
b
(b: 7.33, a: 9.50)

a: CCCOCCn1c(=O)c(N2CCN(CCO)CC2)nc2cnc(-c3ccc(OC)cc3)cc21
b: CCCOCCn1c(=O)c(N2CCN(CCO)CC2)nc2cnc(-c3cccnc3)cc21
Sort a and b by pIC50 descending and give the first. Answer with the label corresponding to your selection.
a
(a: 8.11, b: 7.34)

###

- subjectOfTest: PDE5 enzyme isolated from human platelets (Homo sapiens, UniProt O76074)
- Construct: The PDE5 enzyme for use in the assay can be obtained from human platelets
- runDescription: Alternative human platelet PDE5 enzyme inhibition scintillation proximity assay (Method 2)
- details: cGMP substrate 50 nM, 60 minutes at room temperature
pIC50: −log10 of the molar value.
recordedEndpoint: pIC50

compound: CCCOCCn1c(=O)c(N2CCN(CC(=O)O)CC2)nc2cnc(-c3ccc(OC)nc3)cc21 [Example 8]
valueObserved: 9.29
--
compound: CCCOCCn1c(=O)c(N2CCCC(C(N)=O)C2)nc2cnc(-c3ccc(OC)nc3)cc21 (stereo not shown) [Example 40]
valueObserved: 9.53
--
compound: CCCOCCn1c(=O)c(N2CCN(CCO)CC2)nc2cnc(-c3ccccc3F)cc21 [Example 38]
valueObserved: 7.37
--
compound: CCCOCCn1c(=O)c(N2CCN(CC)CC2)nc2cnc(-c3ccc(OC)nc3)cc21 [Example 39]
valueObserved: 9.66
--
compound: CCCOCCn1c(=O)c(N2CCN(CCO)CC2)nc2cnc(-c3ccc(Cl)cc3)cc21 [Example 13]
valueObserved: 8.87
--
compound: CCCOCCn1c(=O)c(N2CCN(C[C@H](C)O)CC2)nc2cnc(-c3ccc(OC)nc3)cc21 [Example 46]
valueObserved: 9.51

P: CCCOCCn1c(=O)c(N2CCN([C@H](C)[C@@H](C)O)CC2)nc2cnc(-c3ccc(OC)nc3)cc21 [Example 45]
Q: CCCOCCn1c(=O)c(N2CCN(CCO)CC2)nc2cnc(-c3ccc(C)cc3)cc21 [Example 27]
R: CCCOCCn1c(=O)c(N2CCNCC2)nc2cnc(-c3ccc(OC)nc3)cc21 [Example 1]
S: CCCOCCn1c(=O)c(N2CCN(CCCO)CC2)nc2cnc(-c3ccc(OC)nc3)cc21 [Example 11]
Rank order required: pIC50, descending. Answer format: the labels, ordered as requested.
S, P, R, Q

###

- subjectOfTest: PDE5 enzyme isolated from human platelets (Homo sapiens, UniProt O76074)
- Construct: The PDE5 enzyme for use in the assay can be obtained from human platelets; from tissue; host or cells: human platelets
- runDescription: Alternative human platelet PDE5 enzyme inhibition scintillation proximity assay (Method 2)
- Type: biochemical
- details: cGMP substrate 50 nM, 60 minutes at room temperature
recordedEndpoint: IC50 (nM)

Worked examples, 6 compounds total:
molecularString: CCCOCCn1c(=O)c(N2CCN(CCO)CC2)nc2cnc(-c3ccc(S(=O)(=O)CC)cc3)cc21
IC50, nM: 102

molecularString: CCCOCCn1c(=O)c(N2CCN(C[C@@H](C)O)CC2)nc2cnc(-c3ccc(OC)nc3)cc21
IC50, nM: 0.226

molecularString: CCCOCCn1c(=O)c(N2CCN(CCO)CC2)nc2cnc(-c3cccc(OC)c3F)cc21
IC50, nM: 1.59

molecularString: CCCOCCn1c(=O)c(N2CCCN(CCCO)CC2)nc2cnc(-c3ccc(OC)nc3)cc21
IC50, nM: 1.07

molecularString: CCCOCCn1c(=O)c(N2CCN(CCO)CC2)nc2cnc(-c3ccc(OC)c(C)c3)cc21
IC50, nM: 1.69

molecularString: CCCOCCn1c(=O)c(N2CCN([C@@H](C)[C@@H](C)O)CC2)nc2cnc(-c3ccc(OC)nc3)cc21
IC50, nM: 0.33

A: CCCOCCn1c(=O)c(N2CCN(CCO)CC2)nc2cnc(-c3cccc(C)c3)cc21
B: CCCOCCn1c(=O)c(N2CCN(CCO)CC2)nc2cnc(-c3ccc(C(C)=O)s3)cc21
Field: lower IC50 | Options: A / B Answer with the label corresponding to your selection.
B
(B: 43.1 nM, A: 423 nM)

###

- subjectOfTest: PDE5 enzyme isolated from human platelets (Homo sapiens)
- Construct: The PDE5 enzyme for use in the assay can be obtained from human platelets; from tissue; host or cells: human platelets
- runDescription: Alternative human platelet PDE5 enzyme inhibition scintillation proximity assay (Method 2)
- Assay type: biochemical
- details: cGMP substrate 50 nM, 60 minutes at room temperature
recordedEndpoint: IC50 (nM)

compound: CCCOCCn1c(=O)c(N2CCCC(O)C2)nc2cnc(-c3ccc(OC)nc3)cc21 (centres unmarked)
IC50 [nM]: 0.225
--
compound: CCCOCCn1c(=O)c(N2CCN(CCO)CC2)nc2cnc(-c3ccc(OC(C)C)cc3)cc21
IC50 [nM]: 413
--
compound: CCCOCCn1c(=O)c(N2CCN(CC(=O)OC(C)(C)C)CC2)nc2cnc(-c3ccc(OC)nc3)cc21
IC50 [nM]: 0.083

1: CCCOCCn1c(=O)c(N2CCCN(CCO)CC2)nc2cnc(-c3ccc(OC)nc3)cc21
2: CCCOCCn1c(=O)c(N2CCN(CCO)CC2)nc2cnc(-c3cccc(Cl)c3)cc21
3: CCCOCCn1c(=O)c(N2CCN(CCO)CC2)nc2cnc(-c3ccc(CO)cc3)cc21
4: CCCOCCn1c(=O)c(N2CCN(CCO)CC2)nc2cnc(-c3ccc(OC)nc3)cc21
Write the entries in order, lowest recorded IC50 first. Answer format: the labels, ordered as requested.
4, 1, 2, 3
(4: 0.203 nM, 1: 0.721 nM, 2: 3.34 nM, 3: 1790 nM)

###

- subjectOfTest: PDE5 enzyme isolated from human platelets (Homo sapiens)
- Construct: The PDE5 enzyme for use in the assay can be obtained from human platelets
- runDescription: Alternative human platelet PDE5 enzyme inhibition scintillation proximity assay (Method 2)
- details: cGMP substrate 50 nM, 60 minutes at room temperature
pIC50: −log10 of the molar value.
recordedEndpoint: pIC50

a: CCCOCCn1c(=O)c(N2C[C@H]3C[C@@H]2CN3)nc2cnc(-c3ccc(OC)nc3)cc21
b: CCCOCCn1c(=O)c(N2CCN(CCO)CC2)nc2cnc(-c3ccc(F)cc3F)cc21
c: CCCOCCn1c(=O)c(N2CCN(CCO)CC2)nc2cnc(-c3ccc(O)cc3)cc21
Reorder the list above by recorded pIC50 in ascending order. Answer format: the labels, ordered as requested.
c, b, a
(c: 6.08, b: 7.52, a: 8.62)

###

- subjectOfTest: PDE5 enzyme isolated from human platelets (Homo sapiens)
- Construct: The PDE5 enzyme for use in the assay can be obtained from human platelets
- runDescription: Alternative human platelet PDE5 enzyme inhibition scintillation proximity assay (Method 2)
- details: cGMP substrate 50 nM, 60 minutes at room temperature
pIC50: −log10 of the molar value.
recordedEndpoint: pIC50

Worked examples, 2 compounds total:
molecularString: CCCOCCn1c(=O)c(N2CCN(CCO)CC2)nc2cnc(-c3ccc(F)c(C)c3)cc21
subjectOfTest: PDE5 enzyme isolated from human platelets (Homo sapiens)
recordedEndpoint: pIC50
valueObserved: 8.73
--
molecularString: CCCOCCn1c(=O)c(N2CCN(CCO)CC2)nc2cnc(-c3cccc(CO)c3)cc21
subjectOfTest: PDE5 enzyme isolated from human platelets (Homo sapiens)
recordedEndpoint: pIC50
valueObserved: 6.51

I: CCCOCCn1c(=O)c(N2CCN(CCO)CC2)nc2cnc(-c3ccc(OC)c(F)c3)cc21
II: CCCOCCn1c(=O)c(N2CCN(CCO)CC2)nc2cnc(-c3cccc(OC)c3)cc21
Field: lower pIC50 | Options: I / II Answer with the label corresponding to your selection.
I

###

- subjectOfTest: PDE5 enzyme isolated from human platelets (Homo sapiens, UniProt O76074)
- Construct: The PDE5 enzyme for use in the assay can be obtained from human platelets; from tissue; host or cells: human platelets
- runDescription: Alternative human platelet PDE5 enzyme inhibition scintillation proximity assay (Method 2)
- Format: biochemical
- details: cGMP substrate 50 nM, 60 minutes at room temperature
recordedEndpoint: IC50 (nM)

Worked examples, 4 compounds total:
compound: CCCOCCn1c(=O)c(N2CCN(CCO)CC2)nc2cnc(-c3cc(Cl)ccc3F)cc21
subjectOfTest: PDE5 enzyme isolated from human platelets (Homo sapiens, UniProt O76074)
valueObserved: 12.6

compound: CCCOCCn1c(=O)c(N2CCOCC2)nc2cnc(-c3ccc(OC)nc3)cc21
subjectOfTest: PDE5 enzyme isolated from human platelets (Homo sapiens, UniProt O76074)
valueObserved: 1.01

compound: CCCOCCn1c(=O)c(N2CC(C)N(CCCO)C(C)C2)nc2cnc(-c3ccc(OC)nc3)cc21 (stereo not drawn)
subjectOfTest: PDE5 enzyme isolated from human platelets (Homo sapiens, UniProt O76074)
valueObserved: 0.193

compound: CCCOCCn1c(=O)c(N2CCN(CC(C)(C)O)CC2)nc2cnc(-c3ccc(OC)nc3)cc21
subjectOfTest: PDE5 enzyme isolated from human platelets (Homo sapiens, UniProt O76074)
valueObserved: 0.208

P: CCCOCCn1c(=O)c(N2CCC(C(N)=O)CC2)nc2cnc(-c3ccc(OC)nc3)cc21
Q: CCCOCCn1c(=O)c(N2CCN(CCO)CC2)nc2cnc(-c3ccc(OCC)cc3)cc21
Field: lower IC50 | Options: P / Q Answer with the label corresponding to your selection.
P
